Known cytotoxicity at 70.5 h of a selection of compounds
# assay_protocol: Human HepG2 cell viability assay in 384 well format
# Format: toxicity, cell-based
# Design: dose 125 nL, time 70.5 hour; concentration not given beside the values
# condition_description: HepG2 cells, read-out: Inhibition
Give the value, in units of %, as a plain number.

Worked examples follow.
> print(dat)
                                   compound          property.label  obs.value
1  Cc1cc(C(=O)N2CCCC(n3ccnc3C)C2)c(C)s1 (centres undefined)  cytotoxicity at 70.5 h      -11.2
2     CS(=O)(=O)c1nnc(NC(=O)CCc2cccs2)[nH]1  cytotoxicity at 70.5 h       17.8
3  Cc1cc(Cl)ccc1S(=O)(=O)NCC(C)N1CCN(C)CC1 (centres undefined)  cytotoxicity at 70.5 h     -0.894
4  COc1ccc(F)cc1C(C)NC(=O)NCCCn1cncn1 (centres undefined)  cytotoxicity at 70.5 h       -2.2
5  CC(C)c1noc(CCC(=O)NCC2CCS(=O)(=O)C2)n1 (centres undefined)  cytotoxicity at 70.5 h       1.64

Prompt: # input compound: CC(C)c1nc(C2CCCN(C(=O)CCn3cncn3)C2)no1 (centres undefined) ; wanted: its cytotoxicity at 70.5 h
Completion: -2.58

Prompt: Proceed to `COc1cccc(OCCN2CC[C@@](O)(C3CCOCC3)[C@H](C)C2)c1`
Completion: 1.27

Prompt: Proceed to `Cn1c(Cn2ncc(N3CCCC3)cc2=O)nc2ccccc21`
Completion: 25.6

Prompt: Proceed to `Cc1csc(CNCc2c(C)nn(C)c2N2CCOCC2)n1`
Completion: -0.213

Prompt: Proceed to Cc1cnn(CC2CCCN2C(=O)c2cc3c(F)cccc3[nH]2)c1 (centres undefined)
Completion: 6.2

Prompt: Proceed to CC(C)C1CN(C(=O)c2ccccc2)CCS1 (centres undefined)
Completion: 2.34

Prompt: Proceed to Cc1cc(C)c(CNC(=O)NCC(O)c2ccccc2F)c(=O)[nH]1 (centres undefined)
Completion: -2.12

====

# assay_protocol: Human HepG2 cell viability assay in 384 well format
# Type: toxicity, cell-based
# Parameters: dose 125 nL, time 70.5 hour; concentration not given beside the values
# condition_description: HepG2 cells, read-out: Inhibition
property_label: cytotoxicity at 70.5 h (%)
Give the value, in units of %, as a plain number.

> print(dat)
                                   compound  obs.value
1  Cn1cccc1C(=O)N1CCC2(CC1)CN(c1ccccc1)C(=O)CO2      -14.1
2     Cc1cc(F)ccc1NC(=O)Cn1cc(C(=O)O)ccc1=O      -18.2
3  COc1ccccc1-c1noc(CCC(=O)NC(C)Cn2cccn2)n1 (stereo unspecified)      -3.38
4  CCNc1ncc(-c2cc(-c3ccn(C)c3)nc(N)c2C#N)cn1      -11.6
5  CCn1nc(C)c(CCNC(=O)C2CCCN(C(=O)N(C)C)C2)c1C (stereo unspecified)      -11.9

Proceed to the following item.
Prompt: # input compound: `O=C(Nc1ccc(F)cc1F)NC1(CO)CCOCC1` ; wanted: its cytotoxicity at 70.5 h
Completion: -4.4

====

# assay_protocol: Human HepG2 cell viability assay in 384 well format
# Format: toxicity, cell-based
# Set-up: dose 125 nL, time 70.5 hour; concentration not given beside the values
# condition_description: HepG2 cells, read-out: Inhibition
Known cytotoxicity at 70.5 h of a selection of compounds
Give the value, in units of %, as a plain number.

Worked examples follow.
> print(dat)
                                   compound          property.label  obs.value
1  CC[C@@H]1N(Cc2nccs2)CCC[C@]12CCC(=O)N2CCOC  cytotoxicity at 70.5 h      -2.16
2               CCCn1[nH]c(CNc2ccccc2)nc1=O  cytotoxicity at 70.5 h      -2.36

Prompt: # input compound: Cc1cc(C)n(CC2CCCCN2CC(=O)NC2CCOCC2)n1 (stereo unspecified) ; wanted: its cytotoxicity at 70.5 h
Completion: 18.3

Prompt: Proceed to `O=c1c2sccc2nc2n1CCN(Cc1cccs1)CC2`
Completion: -18.8

Prompt: Proceed to Cc1nc2cc(C3CCOCC3)nn2c(NCC2COCCO2)c1C (stereo unspecified)
Completion: 20.9

Prompt: Proceed to `CS(=O)(=O)N1CCC[C@]2(C[C@@H](Oc3ncccc3F)CO2)C1`
Completion: -5.05

====

# assay_protocol: Human HepG2 cell viability assay in 384 well format
# Format: toxicity, cell-based
# Design: dose 125 nL, time 70.5 hour; concentration not given beside the values
# condition_description: HepG2 cells, read-out: Inhibition
Known cytotoxicity at 70.5 h of a selection of compounds
Give the value, in units of %, as a plain number.

Worked examples follow.
> print(dat)
                                   compound  obs.value
1  Cc1ccc(-n2nc(C)c3c(C)cc(OCC(=O)NC(C)C)nc32)cc1      -1.77
2  CC1(Cc2ccc(Cl)cc2)Cc2cc(CCC(=O)O)ccc2O1 (stereo unspecified)      -6.16
3  Cc1cc(NC(=O)CN2CCN(c3nccs3)C(C)C2)no1 (stereo unspecified)      -8.11
4  O=C1NC2(CCN(Cc3cccnc3)CC2)CC1c1ccncc1 (stereo unspecified)      -10.6
5            O=c1cc(CN(CCO)C2CC2)nc2ccccn12      -3.82

Prompt: # input compound: O=C(c1c[nH]c(=O)[nH]c1=O)N1CCCC(c2cnccn2)C1 (stereo unspecified) ; wanted: its cytotoxicity at 70.5 h
Completion: -2.78

====

# assay_protocol: Human HepG2 cell viability assay in 384 well format
# Format: toxicity, cell-based
# Set-up: dose 125 nL, time 70.5 hour; concentration not given beside the values
# condition_description: HepG2 cells, read-out: Inhibition
property_label: cytotoxicity at 70.5 h (%)
Give the value, in units of %, as a plain number.

Worked examples follow.
> print(dat)
                                   molecule  obs.value
1  Cc1ccc(N2CCC3(CCN(C(=O)c4ccnnc4)CC3)CC2)nn1       2.95
2  CCc1nc(C(=O)N2CCN(Cc3ccc(Cl)cc3)CC2)c[nH]1      -2.01
3  Cc1ccc(C)c(CNC(=O)NC(C)(C(=O)O)c2ccco2)c1 (stereo unspecified)       2.89
4  CCn1ncc(C(=O)NCc2ccc(C)c(OC)c2)c1C(F)(F)F      -21.3
5  COc1ccccc1C(C)(C)NC(=O)NC1CCC(O)CC1 (stereo unspecified)      -15.4

Prompt: # input molecule: `CS(=O)(=O)N1C[C@@H]2COC[C@]2(COCC(=O)N2CCCC2)C1` ; wanted: its cytotoxicity at 70.5 h
Completion: -5.68

Prompt: Proceed to `Cc1noc(CN(Cc2ccc3c(c2)OCO3)Cc2ccc(C)o2)n1`
Completion: -15.7

====

# assay_protocol: Human HepG2 cell viability assay in 384 well format
# Format: toxicity, cell-based
# Parameters: dose 125 nL, time 70.5 hour; concentration not given beside the values
# condition_description: HepG2 cells, read-out: Inhibition
Known cytotoxicity at 70.5 h of a selection of compounds
Give the value, in units of %, as a plain number.

Worked examples follow.
> print(dat)
                                   compound  obs.value
1  Cc1nc(C)n(CC2CCCN(CCc3ccccn3)C2)n1 (stereo unspecified)       28.4
2  Cc1ccc(N2C[C@@H]3CN(C(=O)c4ccccc4)CCO[C@@H]3C2)nn1       23.3
3  Cc1csc2c(N3CCNC(C(=O)N4CCCC4)C3)ncnc12 (stereo unspecified)      -7.34

Prompt: # input compound: `Cc1nnc(N2C[C@@H](OCCCn3cccn3)[C@H]3OCCC[C@H]32)s1` ; wanted: its cytotoxicity at 70.5 h
Completion: -9.45

Prompt: Proceed to COc1ccccc1N1CCC(CNC(=O)N(C)Cc2ccco2)C1 (stereo unspecified)
Completion: -3.56

Prompt: Proceed to CCOCc1ccccc1NC(=O)NC1CCN(C2CCCC2)C1 (stereo unspecified)
Completion: -6.21

====

Known cytotoxicity at 70.5 h of a selection of compounds
# assay_protocol: Human HepG2 cell viability assay in 384 well format
# Format: toxicity, cell-based
# Parameters: dose 125 nL, time 70.5 hour; concentration not given beside the values
# condition_description: HepG2 cells, read-out: Inhibition
Give the value, in units of %, as a plain number.

Worked examples follow.
> print(dat)
                                   compound  scale.unit  obs.value
1  O=C(c1cnccn1)N1CCCC2(CCN(Cc3ccsc3)C2)C1 (centres undefined)           %      -5.33
2  Cc1cc(C(=O)N2C[C@H](C(C)C)[C@@H](N(C)C)C2)cs1           %       -2.9
3       CCOc1cccc(C(=O)NCCC(=O)Nc2ccncc2)c1           %      -19.4
4  Cc1nn(C)c(C)c1S(=O)(=O)NCCn1ccc(-c2cccs2)n1           %     -0.512
5  COC(=O)CNC(=O)CSCc1nc(O)c2cc(C(C)C)sc2n1           %      -14.3

Prompt: # input compound: `CCC[C@H]1CN(CCS(C)(=O)=O)C[C@@H]1NC(=O)c1ccccc1F` ; wanted: its cytotoxicity at 70.5 h
Completion: -2.49
